# Lookup of reported Trimeric HA Binding RLU keyed by entry
Molecular target: recombinant homotrimeric HA, A/Vietnam/1203/04 H5N1 (Influenza A virus A/Vietnam/1203/04 (H5N1))
Test: trimeric HA microarray, transfection set 4
Details: remark: other sources report otherwise
# output: numeric value plus its unit

Here is how some binders turned out for Trimeric HA Binding RLU.
- TCN-523 (5248_A17) (antibody, V domains shown) VH: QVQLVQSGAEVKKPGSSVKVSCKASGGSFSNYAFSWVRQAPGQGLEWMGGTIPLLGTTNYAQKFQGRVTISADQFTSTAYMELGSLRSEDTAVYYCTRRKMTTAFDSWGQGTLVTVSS VL: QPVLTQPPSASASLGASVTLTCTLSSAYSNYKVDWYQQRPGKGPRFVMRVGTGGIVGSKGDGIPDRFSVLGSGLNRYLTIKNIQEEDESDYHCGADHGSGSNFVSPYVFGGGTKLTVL: 30900 RLU
- TCN-534 (5249_B02) (antibody, V domains shown) VH: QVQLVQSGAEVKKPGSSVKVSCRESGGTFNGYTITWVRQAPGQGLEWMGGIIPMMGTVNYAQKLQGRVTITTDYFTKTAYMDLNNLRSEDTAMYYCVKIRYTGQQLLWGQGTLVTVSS VL: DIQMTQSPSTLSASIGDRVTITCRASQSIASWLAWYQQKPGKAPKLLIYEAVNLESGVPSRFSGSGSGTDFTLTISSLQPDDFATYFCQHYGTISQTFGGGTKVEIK: 23700 RLU
- TCN-536 (5095_N01) (antibody, V domains shown) VH: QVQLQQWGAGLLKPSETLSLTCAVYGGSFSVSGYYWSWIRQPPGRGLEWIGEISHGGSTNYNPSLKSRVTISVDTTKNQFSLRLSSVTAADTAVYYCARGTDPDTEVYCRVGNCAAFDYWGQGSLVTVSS VL: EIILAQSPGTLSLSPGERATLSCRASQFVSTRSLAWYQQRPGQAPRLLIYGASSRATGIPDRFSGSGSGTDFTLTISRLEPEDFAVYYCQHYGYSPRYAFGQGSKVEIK: 182 RLU

The reported value for TCN-535 (5246_P19) (antibody, V domains shown) VH: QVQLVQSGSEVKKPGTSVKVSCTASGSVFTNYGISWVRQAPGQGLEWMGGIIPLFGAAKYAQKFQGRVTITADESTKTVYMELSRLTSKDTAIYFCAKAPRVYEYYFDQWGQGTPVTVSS VL: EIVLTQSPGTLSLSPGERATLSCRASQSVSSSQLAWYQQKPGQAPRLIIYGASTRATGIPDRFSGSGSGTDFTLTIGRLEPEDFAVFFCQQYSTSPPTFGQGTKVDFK in terms of Trimeric HA Binding RLU is 25200 RLU
